# assay.name: inhibitors of polyQ protein aggregation (AID 1604)
# condition.context: polyglutamine-induced protein aggregation inhibition assay; stronger effect = higher value; tested at 2.5 µM
Recorded inhibition of aggregation for the following compounds
Your answer is read as %, so omit the unit and give the number.

Example entries and their recorded answers appear below.
1. CN=C(NC#N)NCCSCc1nc[nH]c1C: 58.9
2. OC(Cn1cncn1)(Cn1cncn1)c1ccc(F)cc1F: 0
3. Cc1cccc(Nc2ccccc2C(=O)O)c1C: 32.9
4. NC(N)=NC(=O)c1nc(Cl)c(N)nc1N: 27.6
5. Oc1c(Cl)cc(Cl)c2cccnc12: -25.9
6. CN(C)CCCN1c2ccccc2CCc2ccc(Cl)cc21: 66.7

Query: Consider the compound "O=C(O)c1cc(=O)c2c(OCC(O)COc3cccc4oc(C(=O)O)cc(=O)c34)cccc2o1" . State its measured inhibition of aggregation.
Reply: 65.5

These entries and their values trace back to PubChem BioAssay.
